Protocol notes: soluble on expression in E. coli; label from the status in PepcDB or PDB records
Reported metric: soluble on expression in E. coli

Consider the worked cases shown below.
[
  {
    "Biopolymer sequence": "MKQESASQSTPPPSLSPAPSSAQPFWGDGDPQALWIFGYGSLVWKPDFAYSDSRVGFVRGYSRRFWQGDTFHRGSDKMPGRVVTLLEDHEGCTWGVAYQVRGEQVNEALKYLNVREAVLGGYDTKEVTFYPQDTPDQPLTALAYVATPQNPGYLGPAPEEVIATQILACRGFSGHNLEYLLRLADFMQLCGPQAQDEHLEAIVDAVGTLLPCSYLPEQPLALT",
    "soluble on expression in E. coli": "soluble"
  },
  {
    "Biopolymer sequence": "MSLDGVLISSREAIAAAWSRVAGEQGVALGPDCLRDHVHGRPGGYTLDYLFGHLPMERRRILKQRVDALEEGADCPLLPGVAAVIRQLRWLDVPLALVTSSWPARIDHVLRQHDLQAAFRTLVSRDDVVHGKPAPDGYRLAAARLGVAPSRCLVFEDSLSGVQAACAAGATCVAIGEESGLLAAGARWSVRDFRELRIVREDDRLYCQHRHPATTGSERSVGVPEGHHHHHH",
    "soluble on expression in E. coli": "not soluble"
  },
  {
    "Biopolymer sequence": "MGSDKIHHHHHHMGFDVEALKAALEAHGRVIRVVVAEVKGSAPREVGAAMLVWDGGQSGTIGGGTLEFEAADAARRQDAPYRLSTHALGPDLGQCCGGAVTLLSEVYTEVNIAQLTGQVISRAVAPGPEPLAVSRILNHARAQGLAPAPQLIAGWMIEPVACATRPLWIWGAGHVGRALVEVLAPLPDYAITWVDVMRSKYPQEIPASVTALPAQEPGRLVPHAPTEAYHLILTYSHQLDLALCHRLLEHGFDFAGLIGSKTKWARFRARLAALGHRPEQIARLTCPIGMPELGKHPHAIAIGVAAELMALSQRLDLKKEHSA",
    "soluble on expression in E. coli": "not soluble"
  },
  {
    "Biopolymer sequence": "MLAKRSIALTAATLLREPILRREDIADSLLARDILADARQQATQILALEQEKAEHLQQQALAQFWENANAFLGELQVQREALQEQAMTAVEELLSESLRHLLDDTTLAERARALARNLAASQLNEAVATLSVHPQIADAVAEWLADSRFSEHWQLKRDATIASDSLRLSDANGAFDIAWADLRKGLLGVEPAA",
    "soluble on expression in E. coli": "not soluble"
  },
  {
    "Biopolymer sequence": "MSSSHSRAGQSAAGAAPGGGVDTRDAEMPATEKDLAEDAPWKKIQQNTFTRWCNEHLKCVSKRIANLQTDLSDGLRLIALLEVLSQKKMHRKHNQRPTFRQMQLENVSVALEFLDRESIKLVSIDSKAIVDGNLKLILGLIWTLILHYSISMPMWDEEEDEEAKKQTPKQRLLGWIQNKLPQLPITNFSRDWQSGRALGALVDSCAPGLCPDWDSWDASKPVTNAREAMQQADDWLGIPQVITPEEIVDPNVDEHSVMTYLSQFPKAKLKPGAPLRPK",
    "soluble on expression in E. coli": "soluble"
  }
]

Input line: Quick check: soluble on expression in E. coli of MAEDIEEILAEIDGSQIEEYQKFFDAFDRGKQGYIMATQIGQIMHGMEQDFDEKTLRKLIRKFDADGSGKLEFDEFCALVYTVANTVDKETLEKELREAFRLFDKEGNGYISRPTLKALLKEIADDLTDQQLEEAVDEIDEDGSGKIEFEEFWELMAGESD ?
Output line: not soluble

Input line: Fill in: soluble on expression in E. coli of MGSDKIHHHHHHMRSIADQYNVSTNSVSRRILALGKQTMPAYDGLPQTLCIDEFRSTSNQMSFITIDGQKHDIITILPGRQTNEIKQFFLNHYSLKNREQVTQVVMDLNAQYQTFIHYLFPNAKLIVDNFHLVQMALRALNQTRVQLMKKYHPNTPEYWVLKSYWRLYLMNYEALEKSQPQWFSHLRNRLTQEQLIWSGLNLSHEFENTYFTAHKLVEAFRSRDYAAFTATLDEVENVSPQLFTTIKTFIKNKKLIQNMTSSTLSNGPIEGVNRKIKQIKRTAYGYRNWKNFVFRIQIEFKIRLKKRNPVRK is ___
Output line: not soluble

Input line: I'd like to know its soluble on expression in E. coli. The sequence in question is MAHHHHHHSLTTVGLELINVSSSWDEGIVELFEKIKRENKANGQLTGDDGLFFTNLYVTPVLKNINLRLEEGMMLAVAGSTGSGKSSLLMMILGELVPSEGKIRHSGRISYSPQTSWIMPGTIRDNILFGLTYDEFRYTSIIRACQLEEDLDLLPEKDKTAIAEGGVTLSGGQRARICLARAVYKDADLYLLDAPFTHLDIATEKEIFDKCVCKLIASKTRVVVTSKLEHLKRADRILLLHNGDCYFYGTFSELQAQRPDFSSLLLGLGSYDNISAERRSSILTETLRRVSVDETAGFRGEG
Output line: soluble

Input line: Item under review: MGSDKIHHHHHHMNGHLNDCLICDGKLEYLDAAEEMECVICHKKHLNNVRCINRHYICDECHSKRGAKIILEVCRTTDSKNPIEIMQKLMAKPFIHMHGPEHHILTGAALLAAYHNSGGQLDLNKALNEIERRAKQVPGGACGFWGCCGAAISTGMFISIATGATPLSEREWSLSNLITSKVLRRISALGGPRCCKRNCFTAAKVAVEFTGEQLAVNMELPVDICCFFSPNNHECKGALCPYSPQHSNS . Reported soluble on expression in E. coli?
Output line: not soluble

Input line: Requested field: soluble on expression in E. coli. Item: MVNKDVTKVCIGKIEELPEQLGKTVYIEDKELAVFKLSDGSIRAIENRCPHKGGVLAEGIVSGQYVFCPMHDWKISLEDGIVQEPDHGCVKTYETLIEGEHVYLVY
Output line: not soluble

Input line: Returns the measured soluble on expression in E. coli for the input sequence. Input: MGSDKIHHHHHHAGCKTSKVVKTTPVEPAYLSSKLQLTVPNKNGSMTVSGSMKMKSGERIQLSVLMPVFRSEVMRMEVTPDEVLLIDRMNKRYVRATRDELKGILPENADFDRLEKLLFKASLPGEKKELTGRELGIPSLEKAKVRLSDFSTAEFELIPTEVSSRYTQVALEDLLKMLMKL
Output line: not soluble

Input line: Given MGSDKIHHHHHHMTSSSRIAVRELPLFPLPEVVLFPTRPLPLHIFEFRYRIMMNTILESDRRFGVLMVDPVKGTIANVGCCAEIIHYQRLPDDRMKMLTLGQQRFRVLEYVREKPYRVGLVEWLEDHPPAKDLRPLATDVEQLLRDVVRLSAKITEQNIEIPEELPDLPTELSYWVASNLYGVAGEQQSLLEMQDTAARLEREAEILTTTRNHLAARSVLKDTFNPKL , state its recorded soluble on expression in E. coli.
Output line: not soluble
